For each of the compounds below, state its pIC50.
System: San Angelo virus
Test: Antiviral activity against San Angelo virus-infected Vero cells
Assay type: functional, organism-based
Settings: San Angelo virus, Vero
Numbers only, as −log10 of the molar value.

                                   compound     subjectoftest  endpointvalue
0  O=C(Nc1ccccn1)c1ccc2[nH]c(-c3ccc(NC(=O)[C@]45CC6CC(C4)[C@@H](O)C(C6)C5)cc3)nc2c1  San Angelo virus           6.87

# map each compound to its pIC50
1. O=C(Nc1ccccn1)c1cc2nc(-c3ccc(NC(=O)C45CC6CC(CC(C6)C4)C5)cc3)[nH]c2cn1
2. O=C(Nc1ccccn1)c1ccc2[nH]c(-c3ccc(NC(=O)C45CC6CC(CC(C6)C4)C5)cc3F)nc2c1
3. O=C(Nc1cc2nc(-c3ccc(NC(=O)C45CC6CC(CC(C6)C4)C5)cc3)[nH]c2cn1)c1ccccn1
4. O=C(Nc1ccc(-c2nc3cc(NC(=O)C45CC6CC(CC(C6)C4)C5)ccc3[nH]2)cc1)C12CC3CC(CC(C3)C1)C2

[7.40, 6.70, 7.22, 7.22]

Give pIC50 for each of the items listed below.
1. O=C(Nc1ccc(-c2nc3cc(NC(=O)C45CC6CC(C4)C(O)C(C6)C5)ncc3[nH]2)cc1)C12CC3CC(CC(C3)C1)C2 (configuration not stated)
2. CC(=O)OC1C2CC3CC1CC(C(=O)Nc1ccc(-c4nc5cc(C(=O)Nc6ccccn6)ccc5[nH]4)cc1)(C3)C2 (configuration not stated)
3. O=C(Nc1ccc(-c2nc3cc(C(=O)NC45CC6CC(CC(C6)C4)C5)ccc3[nH]2)cc1)c1ccc(Cl)c(Cl)c1

1: 7.22; 2: 7.22; 3: 8.22

###

Test system: Human alphaherpesvirus 2
Experiment: Antiviral activity against HSV2-infected Vero cells
Assay type: functional, organism-based
Details: Human alphaherpesvirus 2, Vero
Lab note: compare IC50 with 200 nM, writing met if less and not met if equal or more.

Here are 4 compounds together with their reported answers.
>>> df
                                   compound    label
0  O=C(Nc1ccccn1)c1ccc2[nH]c(-c3ccc(NC(=O)[C@]45CC6CC(C4)[C@@H](O)C(C6)C5)cc3)nc2c1  not met
1  O=C(Nc1ccc(-c2nc3cc(NC(=O)C4CCCCC4)ccc3[nH]2)cc1)c1ccc(Cl)c(Cl)c1      met
2  O=C(NC12CC3CC(CC(C3)C1)C2)c1cc2nc(-c3ccc(NC(=O)C45CC6CC(CC(C6)C4)C5)cc3)[nH]c2cn1      met
3  O=C(Nc1ccc(-c2nc3cc(C(=O)NC45CC6CC(CC(C6)C4)C5)ncc3[nH]2)cc1)c1ccc(Cl)cc1      met

I wonder whether "O=C(NC12CC3CC(CC(C3)C1)C2)c1ccc2[nH]c(-c3ccc(NC(=O)C45CC6CC(CC(C6)C4)C5)cc3)nc2c1" has IC50 below 200 nM. Can you tell?
met

In plain terms, does CC(=O)OC1C2CC3CC1CC(C(=O)Nc1ccc(-c4nc5cc(C(=O)Nc6ccccn6)ccc5[nH]4)cc1)(C3)C2 (configuration not stated) come in under 200 nM for IC50?
not met

Confirm or reject: IC50 of "O=C(Nc1ccc(-c2nc3cc(NC(=O)C4CCCCC4)ccc3[nH]2)cc1)C1CCCCC1" lies strictly below 200 nM
met

###

For each entry below, report its IC50 value.
Test system: San Angelo virus
Experiment: Antiviral activity against San Angelo virus-infected Vero cells
Format: functional, organism-based
Conditions: San Angelo virus, Vero
Answers are plain numbers, in nM.

Example results:
                             compoundsmiles  quantityunit  endpointvalue
0  O=C(Nc1ccc(-c2nc3cc(NC(=O)C4CCCCC4)ccc3[nH]2)cc1)C1CCCCC1            nM            200
1  O=C(Nc1ccc(-c2nc3cc(C(=O)NC45CC6CC(CC(C6)C4)C5)ncc3[nH]2)cc1)c1ccc(Cl)cc1            nM             20

# return recorded IC50 for input "O=C(Nc1ccc(-c2nc3cc(NC(=O)C45CC6CC(CC(C6)C4)C5)ncc3[nH]2)cc1)C12CC3CC(CC(C3)C1)C2"
6

###

Tested on: Murine hepatitis virus
Experiment: Antiviral activity against mouse hepatitis virus-infected NCTC clone-1469 cells
Type: functional, organism-based
Conditions: Murine coronavirus
Please provide measured pIC50 for the entries that follow.
Numbers only, as −log10 of the molar value.

Before answering, review these 6 worked examples.
>>> df
                                   compound  endpointvalue
0  O=C(Nc1ccc(-c2nc3cc(NC(=O)C45CC6CC(CC(C6)C4)C5)ccc3[nH]2)cc1)C12CC3CC(CC(C3)C1)C2           7.92
1  O=C(Nc1ccc(-c2nc3cc(NC(=O)C45CC6CC(CC(C6)C4)C5)ncc3[nH]2)cc1)C12CC3CC(CC(C3)C1)C2           8.10
2  O=C(Nc1ccc(-c2nc3cc(C(=O)NC45CC6CC(CC(C6)C4)C5)ncc3[nH]2)cc1)c1ccc(Cl)cc1           7.22
3  O=C(Nc1ccccn1)c1ccc2[nH]c(-c3ccc(NC(=O)[C@]45CC6CC(C4)[C@@H](O)C(C6)C5)cc3)nc2c1           7.00
4  O=C(NC12CC3CC(CC(C3)C1)C2)c1cc2nc(-c3ccc(NC(=O)C45CC6CC(CC(C6)C4)C5)cc3)[nH]c2cn1           7.70
5  O=C1C2CC3CC1CC(C(=O)Nc1ccc(-c4nc5cc(NC(=O)C67CC8CC(CC(C8)C6)C7)ncc5[nH]4)cc1)(C3)C2           6.70

Please state, for each entry, its recorded pIC50.
1. O=C(Nc1ccc(-c2nc3cc(NC(=O)C45CC6CC(CC(C6)C4)C5)ncc3[nH]2)cc1)C12CC3CC(C1)C(O)C(C3)C2 (centres undefined)
2. O=C(NC12CC3CC(CC(C3)C1)C2)c1ccc2[nH]c(-c3ccc(NC(=O)C45CC6CC(CC(C6)C4)C5)cc3)nc2c1
3. O=C(Nc1ccccn1)c1ccc2[nH]c(-c3ccc(NC(=O)C45CC6CC(CC(C6)C4)C5)cc3)nc2c1 (stereo in doubt; 1h)
4. O=C(Nc1ccc(-c2nc3cc(C(=O)NC45CC6CC(C4)C(=O)C(C6)C5)ncc3[nH]2)cc1)c1ccc(Cl)cc1

1: 7.70; 2: 7.70; 3: 7.70; 4: 7.00

Fill in pIC50 for record "O=C(Nc1cc2nc(-c3ccc(NC(=O)C45CC6CC(CC(C6)C4)C5)cc3)[nH]c2cn1)c1ccccn1"
7.22

###

Test system: San Angelo virus
Test: Antiviral activity against San Angelo virus-infected Vero cells
Type: functional, organism-based
Details: San Angelo virus, Vero
metric: pIC50
Give bare numbers, as −log10 of the molar value.

For every item in the list below, what is its measured pIC50?
1. O=C(Nc1ccc(-c2nc3cc(NC(=O)C4CCCCC4)ncc3[nH]2)cc1)C1CCCCC1
2. O=C(NC12CC3CC(CC(C3)C1)C2)c1cc2nc(-c3ccc(NC(=O)C45CC6CC(CC(C6)C4)C5)cc3)[nH]c2cn1
3. O=C(Nc1ccc(-c2nc3cc(NC(=O)C4CCCCC4)ccc3[nH]2)cc1)c1ccc(Cl)c(Cl)c1
4. O=C(NC12CC3CC(C1)C(=O)C(C3)C2)c1cc2nc(-c3ccc(NC(=O)C45CC6CC(CC(O)(C6)C4)C5)cc3)[nH]c2cn1
5. O=C1C2CC3CC1CC(C(=O)Nc1ccc(-c4nc5cc(NC(=O)C67CC8CC(CC(C8)C6)C7)ncc5[nH]4)cc1)(C3)C2
6. O=C1C2CC3CC1CC(C(=O)Nc1ccc(-c4nc5cc(NC(=O)C67CC8CC(C6)C(=O)C(C8)C7)ncc5[nH]4)cc1)(C3)C2
7. O=C(NC12CC3CC(CC(C3)C1)C2)c1ccc2[nH]c(-c3ccc(NC(=O)C45CC6CC(CC(C6)C4)C5)cc3)nc2c1

1: 7.70; 2: 7.22; 3: 7.22; 4: 6.70; 5: 6.70; 6: 6.70; 7: 7.70

Okay, here is my list. What is pIC50 for each of these?
1. O=C(Nc1ccc(-c2nc3cc(C(=O)NC45CC6CC(C4)C(=O)C(C6)C5)ncc3[nH]2)cc1)c1ccc(Cl)cc1
2. O=C(Nc1ccc(-c2nc3cc(NC(=O)C45CC6CC(CC(C6)C4)C5)ncc3[nH]2)cc1)C12CC3CC(C1)C(O)C(C3)C2 (centres undefined)

[6.87, 7.22]

###

Provide the recorded IC50 for the entries that follow.
System: Murine hepatitis virus
Test: Antiviral activity against mouse hepatitis virus-infected NCTC clone-1469 cells
Type: functional, organism-based
Settings: Murine coronavirus

Sample records with IC50:
>>> df
                                   compound           subjectoftest  endpointvalue
0  O=C(NC12CC3CC(C1)C(=O)C(C3)C2)c1cc2nc(-c3ccc(NC(=O)C45CC6CC(CC(O)(C6)C4)C5)cc3)[nH]c2cn1  Murine hepatitis virus       > 600 nM
1  O=C1C2CC3CC1CC(C(=O)Nc1ccc(-c4nc5cc(NC(=O)C67CC8CC(C6)C(=O)C(C8)C7)ncc5[nH]4)cc1)(C3)C2  Murine hepatitis virus       > 600 nM

Now for another entry.
Determine its reported IC50: CC(=O)OC1CCC(C(=O)Nc2ccc(-c3nc4cc(NC(=O)C5CCC(OC(C)=O)CC5)ccc4[nH]3)cc2)CC1 (stereo not drawn)
> 600 nM
